Reported values of self-cleavage for individual entries
B1: CPEB3 Ribozyme (parent)
chain: GGGGGCCACAGCAGAAGCGUUCACGUCGCGGCCCCUGUCAGAUUCUGGUGAAUCUGCGAAUUCUGCUGU

Variants of: B1
assay text: self-cleavage, relative activity (ratio to wild type); higher = more cleavage; co-transcriptional
readout name: self-cleavage

1. G31C C33A | 0.338
2. U61G U64G | 0.397
3. C22G A59G | 0.204
4. G37C A52C | 0.216
5. U46A U55C | 0.871
6. G30U C66G | 0.216
7. C39A U67G | 0.932
8. U36A A40C | 0.223
9. C22U A23U | 0.384
10. U46C A52C | 0.943
11. A13G U62G | 0.445
12. U20C C45U | 0.201
13. G4A U49G | 0.728
14. G41C A51U | 0.542
15. G3U C39G | 0.0714
16. C29A U67C | 0.736
17. G14C C32G | 0.193
18. C12U A40C | 0.358
19. G58A U69G | 1.02
20. C29G U46A | 0.707
21. G48A C54U | 1.01
22. C6U C39G | 0.899
